Tested on: Caco-2
Test: cell viability relative to DMSO; higher = less toxic
Conditions: 72 h; 10000 nM
metricName: cell viability (%)
Dear colleague, please return just the value in %, with no unit written.

Request: For the molecule shown here, CCCn1c(=O)[nH]c(=O)c2nc[nH]c21 [enprofylline] , give the reported cell viability.
Result: 95.5

Request: For the molecule shown here, N#Cc1c[nH]c2c(C(=O)N3CCN(CCc4ccc(F)cc4)CC3)cccc12 [pruvanserin] , give the reported cell viability.
Result: 95.7

Request: For the molecule shown here, COc1ccc2nc(NC(=O)Nc3ccccc3)sc2c1 [frentizole] , give the reported cell viability.
Result: 87.9

Request: For the molecule shown here, CCOP(=S)(OCC)Oc1cc(C)nc(C(C)C)n1 [dimpylate] , give the reported cell viability.
Result: 93.2

Request: For the molecule shown here, CC[C@H](C)[C@@H]1NC(=O)[C@H](Cc2ccc(O)cc2)NC(=O)[C@@H](N)CSSC[C@@H](C(=O)N2CCC[C@H]2C(=O)N[C@@H](CC(C)C)C(=O)NCC(N)=O)NC(=O)[C@H](CC(N)=O)NC(=O)[C@H](CCC(N)=O)NC1=O [oxytocin] , give the reported cell viability.
Result: 100

Measured values drawn from the supplement of paper PMC13380429 for this set.
